- Assay Protocol: Microsomal stability in mouse liver microsomes (MLM)
- Assay type: in vitro ADME
- Condition Label: mouse, microsomes
Assay Readout: Mouse liver microsomes, MLM t½ (min)

CN(C)C(=O)c1cccc2c1CN(C(C)(C)CCc1ccc(O)c(OC(C)(C)C)c1)C2	8
C[C@H](CCc1ccc(O)c(OC(C)(C)C)c1)N1Cc2cccc(F)c2C1 [60B]	8
COCCN(C)C(=O)c1cccc2c1CN(C(C)(C)CCc1ccc(O)c(OC)c1)C2	19

1. CN1CCN(C(=O)c2cccc3c2CN(C(C)(C)CCc2ccc(O)c(OC(F)(F)F)c2)C3)CC1
2. Cc1ccc2c(c1)CN([C@H](C)CCc1ccc(Cl)c(Cl)c1)C2
3. COc1cc(CCC(C)(C)N2Cc3cccc(C(=O)N(C)CCN(C)C)c3C2)ccc1O
4. CC(C)(CCc1ccc(F)cc1)N1Cc2ccc(F)cc2C1
Rank descending by Mouse liver microsomes, MLM t½. Returns: the labels arranged in the requested order.
3, 4, 1, 2

1. CC(C)Oc1cc(CC[C@@H](C)N2Cc3cccc(F)c3C2)ccc1O
2. CC(=O)N1CCN(C(=O)c2cccc3c2CN(C(C)(C)CCc2ccc(O)c(OCC(C)C)c2)C3)CC1
3. COc1cc(CC[C@@H](C)N2Cc3ccc(Cl)cc3C2)ccc1O
4. COc1cc(CC[C@@H](C)N2Cc3cccc(S(C)(=O)=O)c3C2)ccc1O
Order each entry by recorded Mouse liver microsomes, MLM t½, climbing from the minimum. Write the labels out in the order the request specifies.
1, 2, 3, 4

====

- Assay Protocol: Microsomal stability in mouse liver microsomes (MLM)
- Format: in vitro ADME
- Condition Label: mouse, microsomes
Assay Readout: Mouse liver microsomes, MLM t½ (min)

Below, each entry is followed by its recorded Mouse liver microsomes, MLM t½ result.
CC(C)(CCc1ccc(F)cc1)N1Cc2cc3c(cc2C1)OCO3	47
C[C@H](CCc1ccc(OC(=O)N(C)C)c(OC(F)(F)F)c1)N1Cc2cccc(F)c2C1	9
C[C@H](CCc1ccc(Cl)c(Cl)c1)N1Cc2cc(Cl)c(Cl)cc2C1	53

P. CC(C)Oc1cc(CCC(C)(C)N2Cc3cccc(F)c3C2)ccc1O
Q. C[C@H](CCc1ccc(Cl)c(Cl)c1)N1Cc2ccc3ccccc3c2C1
Which one would you say has the larger Mouse liver microsomes, MLM t½ value: P , or Q ? // output: label of the selected item
Q

I. C[C@H](CCc1ccc(F)cc1)N1Cc2cccc(F)c2C1
II. C[C@H](CCc1ccc(Cl)c(Cl)c1)N1Cc2cccc(Cl)c2C1.Cl
Could you tell me which of I and II has the lower Mouse liver microsomes, MLM t½ reading? Give the label of your selection.
I
(I: 7 min, II: 12 min)

I. COc1cc(CCC(C)(C)N2Cc3cccc(C(=O)N4CCOCC4)c3C2)ccc1O
II. CC(C)(CCc1ccc(O)c(OC(F)(F)F)c1)N1Cc2cccc(C(=O)N3CCOCC3)c2C1
Sorting ascending by Mouse liver microsomes, MLM t½, which comes first: I or II ? Record your answer as the label of the chosen record.
II

====

- Assay Protocol: Microsomal stability in mouse liver microsomes (MLM)
- Assay type: in vitro ADME
- Condition Label: mouse, microsomes
Assay Readout: Mouse liver microsomes, MLM t½ (min)

Example cases with answers are listed next.
CC(C)COc1cc(CCC(C)(C)N2Cc3ccc(S(C)(=O)=O)cc3C2)ccc1O	86
CC(C)(CCc1ccc(F)cc1)N1Cc2cccc(F)c2C1	9
CC(C)COc1cc(CCC(C)(C)N2Cc3cccc(C(=O)N4CCOCC4)c3C2)ccc1O	9
COc1cc(CCC(C)(C)N2Cc3cccc(C(=O)NCCN(C)C)c3C2)ccc1O	450
CC(C)Oc1ccc(CCC(C)(C)N2Cc3ccc(F)cc3C2)cc1OC(C)C	14

a. CC(C)Oc1cc(CCC(C)(C)N2Cc3ccc(S(C)(=O)=O)cc3C2)ccc1O
b. COc1cc(CCC(C)(C)N2Cc3cccc(F)c3C2)ccc1OCCO
c. C[C@H](CCc1ccc(O)c(OC(F)(F)F)c1)N1Cc2ccc(F)cc2C1
Order the records by Mouse liver microsomes, MLM t½, with each subsequent value no larger than the one before. Reply: labels, ordered per the request.
a, b, c
